ASSAY_TARGET: Isocitrate dehydrogenase [NADP] cytoplasmic (Homo sapiens) (UniProt O75874)
Sequence (O75874 whole entry R132H): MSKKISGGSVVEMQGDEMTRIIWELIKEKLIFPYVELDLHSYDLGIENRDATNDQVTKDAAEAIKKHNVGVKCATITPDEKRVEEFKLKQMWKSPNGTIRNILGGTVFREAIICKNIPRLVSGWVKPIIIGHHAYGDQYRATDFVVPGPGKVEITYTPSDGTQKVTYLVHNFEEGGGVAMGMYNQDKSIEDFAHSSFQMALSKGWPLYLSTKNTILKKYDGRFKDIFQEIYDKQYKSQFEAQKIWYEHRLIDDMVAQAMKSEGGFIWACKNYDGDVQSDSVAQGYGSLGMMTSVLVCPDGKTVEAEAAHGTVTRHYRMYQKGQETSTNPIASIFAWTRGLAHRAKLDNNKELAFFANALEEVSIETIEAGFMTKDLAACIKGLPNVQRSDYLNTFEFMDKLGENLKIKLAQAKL
ASSAY_DETAILS: PubChem AID 624101;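 further: 0% = DMSO and 100% = no enzyme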
SETUP_CONDITIONS: IDH1 R132H reductase, diaphorase/resazurin fluorescence, 60 min; at 10 µM; hits give high values
Among all 70,000 compounds or so, about 120 (0.17%) were called active. The list comes from a sample in which actives are over-represented; it also holds close analogues and randomly drawn compounds.
PROPERTY_MEASURED: inhibition (%)
Give the quantity in %, number only.

Worked examples follow.
item_smiles=CO[C@@H]1CN(C)C(=O)c2ccc(NC(=O)c3ccc(F)cc3)cc2OC[C@H](C)N(C)C[C@H]1C property_measured=inhibition assay_value=0.002
item_smiles=COCc1cn(CC[C@H]2CC[C@@H](NC(=O)Nc3ccc(OC)cc3)[C@@H](CO)O2)nn1 property_measured=inhibition assay_value=0.176
item_smiles=O=S(=O)(N[C@@H]1CC[C@H](CCn2cc(C3(O)CCCC3)nn2)O[C@@H]1CO)c1ccc(Cl)cc1 property_measured=inhibition assay_value=0.461
item_smiles=Cc1ccc(S(=O)(=O)N[C@H]2CC[C@H](CC(=O)NCc3ccccc3F)O[C@@H]2CO)cc1 property_measured=inhibition assay_value=-0.113
item_smiles=COCC(=O)N(C)C[C@H]1Oc2cc(C#CC3CCCC3)ccc2S(=O)(=O)N([C@H](C)CO)C[C@@H]1C property_measured=inhibition assay_value=-1.42

For CN1CCN(C(=O)C[C@@H]2C[C@H]3c4cc(NC(=O)NC5CCCC5)ccc4O[C@H]3[C@H](CO)O2)CC1 the compound record lists inhibition as -0.193

For O=C(C[C@@H]1CC[C@H](NC(=O)CN2CCOCC2)[C@@H](CO)O1)NCCc1ccccc1 the compound record lists inhibition as 0.1

For COc1ccc(NC(=O)N[C@H]2CC[C@H](CCn3cc(-c4ccccc4F)nn3)O[C@H]2CO)cc1 the compound record lists inhibition as -0.29

For COCC(=O)Nc1ccc2c(c1)OC[C@@H](C)N(C(=O)c1ccncc1)C[C@@H](C)[C@@H](OC)CN(C)C2=O the compound record lists inhibition as -0.0035

For Cc1ccc(S(=O)(=O)N[C@@H]2CC[C@H](CCn3cc(C4(O)CCCC4)nn3)O[C@H]2CO)cc1 the compound record lists inhibition as 0.172

For CN1CCN(C(=O)C[C@H]2C[C@H]3c4cc(NC(=O)Nc5ccccc5F)ccc4O[C@H]3[C@H](CO)O2)CC1 the compound record lists inhibition as -0.523

For O=C(N[C@H]1CC[C@@H](CCNS(=O)(=O)c2cccc(Cl)c2)O[C@@H]1CO)c1ccccc1 the compound record lists inhibition as -0.277

For O=C(N[C@H]1CC[C@@H](CCNS(=O)(=O)c2ccc(Cl)cc2)O[C@H]1CO)c1cccc(F)c1 the compound record lists inhibition as -0.0045

For CC(C)NC(=O)N[C@H]1CC[C@H](CC(=O)NC2Cc3ccccc3C2)O[C@H]1CO the compound record lists inhibition as 0.112

For CO[C@@H]1CN(C)C(=O)c2ccc(NC(=O)Nc3ccccc3)cc2OC[C@@H](C)N(C(=O)Nc2c(C)noc2C)C[C@@H]1C the compound record lists inhibition as -0.183

For CO[C@@H]1CN(C)C(=O)c2cc(NC(C)=O)ccc2OC[C@H](C)N(Cc2ccccn2)C[C@H]1C the compound record lists inhibition as 0.0735

For C[C@@H](NC(=O)C[C@@H]1C=C[C@@H](NC(=O)CN2CCOCC2)[C@H](CO)O1)c1ccccc1 the compound record lists inhibition as 0.081
